Attribution: ChEMBL document CHEMBL4393693

What Ratio was measured for each of the following?
# assayExplanation: Selective ratio of inhibition of GuaB2 Tyr487Cys mutant in Mycobacterium tuberculosis H37Rv SRMV2.6 to inhibition of wild type GuaB2 in Mycobacterium tuberculosis H37Rv

QUERY: Return Ratio (reported value) for this compound: CC1CN(S(=O)(=O)c2cccc3cnccc23)CCN1C(=O)Nc1ccc2c(c1)OCO2 (stereo unspecified)
RESULT: 8 to 16

QUERY: Return Ratio (reported value) for this compound: O=C(Nc1ccc2c(c1)OCO2)N1CCN(S(=O)(=O)c2cccc3cnccc23)CC1
RESULT: 4

QUERY: Return Ratio (reported value) for this compound: O=C(C1CCCCC1)N1CCN(S(=O)(=O)c2cccc3cnccc23)CC1
RESULT: 32

QUERY: Return Ratio (reported value) for this compound: Cc1ccccc1CNC(=O)N1CCN(S(=O)(=O)c2cccc3cnccc23)CC1
RESULT: 16 to 32

QUERY: Return Ratio (reported value) for this compound: CC1CCCCC1C(=O)N1CCN(S(=O)(=O)c2cccc3cnccc23)CC1 (stereo unspecified)
RESULT: 16 to 32

QUERY: Return Ratio (reported value) for this compound: O=C(Nc1ccc2c(c1)OCO2)N1CCCN(S(=O)(=O)c2cccc3cnccc23)CC1
RESULT: 8 to 16
